B1: PDS5B (parent)
chain: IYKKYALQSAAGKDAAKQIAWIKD

- Variants of: B1
- Assay name: protein stability index of a GFP-peptide fusion (GPS, HEK-293T) (PSI 1-6); higher = more stable;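 further: lentivirally expressed fusions sorted by FACS into six bins by GFP to DsRed ratio, PSI derived from sequencing read proportions per bin multiplied by bin number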
- Run parameters: c terminus: a fixed tail appended
In this section we review reported protein stability index values for a set of variants.
Endpoint name: protein stability index

{"columns": ["Variant label", "Measured number"],
 "data": [
  ["Q18D", 2.83],
  ["Q18C", 1.75],
  ["K17T", 2.92],
  ["Y2D", 3.75],
  ["A20R", 1.84],
  ["Q18H", 2.43],
  ["Q18P", 2.37],
  ["K23W", 2.62],
  ["K4T", 2.7],
  ["Q8S", 2.25],
  ["A20T", 2.23],
  ["W21M", 3.2],
  ["K23I", 2.64],
  ["A20F", 1.95],
  ["I19C", 2.38],
  ["I22S", 3.09],
  ["A6Y", 1.52],
  ["Y5L", 2.36],
  ["I19S", 2.6],
  ["K3G", 2.24],
  ["I1S", 2.63],
  ["D14N", 2.19],
  ["I19K", 3.01],
  ["K23S", 2.98],
  ["Y5N", 2.93],
  ["I19G", 3.46],
  ["A10K", 2],
  ["S9A", 2.16],
  ["D14C", 1.36],
  ["A16F", 1.76],
  ["K13C", 1.94],
  ["D14S", 2.15],
  ["Q18S", 2.58],
  ["G12V", 2.08],
  ["I19M", 1.97],
  ["A15K", 2.76],
  ["A11E", 2.43],
  ["A15W", 1.43],
  ["K17H", 2.89],
  ["D14Y", 1.85],
  ["L7D", 3.16],
  ["I19W", 1.93],
  ["K23V", 1.54],
  ["A20M", 2.02],
  ["A20L", 1.89],
  ["I22D", 3.78]
]}
